Assay: AUC (0 to t) in male ICR mouse plasma at 4 mg/ml, TOP measured after 12 hrs by LC-MS/MS analysis
Assay type: ADME, cell-free
Conditions: topical or ocular
attribute.measured: AUC(0-t) at 12 h

response.value for N#Cc1ccc(O[C@H]2CC[C@H](NC(=O)c3ccc(C4CCN(CC5CCCN(c6ccc(C(=O)NC7CCC(=O)NC7=O)cc6)C5)CC4)cc3)CC2)cc1Cl (stereo partly specified) (field: AUC(0-t) at 12 h) = 992 ng·h/mL

###

Assay: Cmax in male ICR mouse plasma at 4 mg/ml, TOP measured after 12 hrs by LC-MS/MS analysis
Format: ADME, cell-free
Conditions: topical or ocular
attribute.measured: Cmax (ng/mL)
Your answer is read as ng/mL, so omit the unit and give the number.

The molecule identified as N#Cc1ccc(O[C@H]2CC[C@H](NC(=O)c3ccc(C4CCN(CC5CCCN(c6ccc(C(=O)NC7CCC(=O)NC7=O)cc6)C5)CC4)cc3)CC2)cc1Cl (stereo partly specified) registered its Cmax at 708

Values compiled from ChEMBL document CHEMBL6078684.
